Assignment: determine reported normalized growth for the given compounds.
test: chemical genetic growth profiling, strain panel (AID 1159580);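 further: tested at 20 µM; growth read once vehicle control cultures reached saturation at 30 °C; 1 = growth at the plate median or of vehicle wells; lower values mean less growth of the strain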; conditions: S. cerevisiae deletion strains, growth OD, locus YJL166W, strain qcr8, hits give low values
The whole screen tested about 5,500 compounds, of which about 2,000 (36%) were called active. Not shown: some 18% with an inconclusive outcome. The list shows a part of the results. Where a SMILES comes first, the peptide text is derived from it.
One number for each entry.

Study these solved cases before continuing.
INSERT INTO results (compound, measured_attribute, test_result) VALUES
  ('COc1ccnc(CS(=O)c2nc3ccc(OC(F)F)cc3[nH]2)c1OC (centres undefined)', 'normalized growth', 0.989),
  ('O=C(O)CCC1NCC2CC1CN1CCCCC21 (centres undefined)', 'normalized growth', 0.975),
  ('COC(=O)[C@@H]1OC(=O)C2OC23[C@@]1(C)CCC1[C@@]2(C)CCC(=O)C(C)(C)C2C[C@@H](OC(C)=O)[C@]13C (some centres undefined)', 'normalized growth', 1.01),
  ('CC(=O)N[C@@H](CC(=O)O)C(=O)N[C@@H](CCC(=O)O)C(=O)O (Ac-Asp-Glu-OH)', 'normalized growth', 1.01);

Give normalized growth for all compounds that follow.
1. Cc1onc(-c2ccccc2)c1-c1ccc(S(N)(=O)=O)cc1
2. C[C@]12CCC3c4ccc(O)cc4CCC3C1CCC2=O (some centres undefined)
3. CN[C@@H]1C(OC2[C@H](O[C@H]3[C@H](O)[C@@H](O)[C@H](N=C(N)N)[C@@H](O)[C@@H]3N=C(N)N)OC(C)[C@]2(O)CO)OC(CO)C(O)C1O (some centres undefined)
4. CC(=O)N[C@@H](CCC(=O)O)C(=O)O
5. CCCn1c(=O)c2[nH]c(C3CCCC3)nc2n(CCC)c1=O
6. COC[C@]12CN(C=O)C3[C@@H]4[C@H](OC)C1[C@]3(C1CC3(O)C(OC)C(O)C4(OC(C)=O)C1C3OC(=O)c1ccccc1)[C@@H](OC)C[C@H]2O (some centres undefined)

Reply:
1. 1
2. 0.987
3. 1.02
4. 1
5. 0.988
6. 1.01

Record normalized growth for all entries; do not skip any.
1. CCN1C[C@@]2(COC)C3[C@@H](OC)[C@H]4[C@@H]1[C@]3(C(OC)C[C@H]2O)C1C[C@@]2(O)[C@H](OC(=O)c3ccccc3)C1[C@]4(OC(C)=O)[C@@H](O)[C@@H]2OC (some centres undefined)
2. O=c1cccc2n1CC1CC2CN2CCCC[C@@H]12 (some centres undefined)
3. FC(F)(F)c1cccc(N2CCNCC2)c1
4. C[C@H]1C[C@@H](O)[C@]2(O)[C@@]13CC(=O)OC[C@@]2(C)[C@](C)(O)C(=O)C3

Reply:
1. 0.989
2. 1.01
3. 0.987
4. 1.02

Ref: PubChem BioAssay AID1159580
